# credit: patent US20260144882A1

# System Under Test: T1, human Nectin-4 extracellular antigen hNectin-4-His (human, UniProt Q96NY8 32-349)
# T1 construct: C-terminal 8xHis tag included
# T1 sequence: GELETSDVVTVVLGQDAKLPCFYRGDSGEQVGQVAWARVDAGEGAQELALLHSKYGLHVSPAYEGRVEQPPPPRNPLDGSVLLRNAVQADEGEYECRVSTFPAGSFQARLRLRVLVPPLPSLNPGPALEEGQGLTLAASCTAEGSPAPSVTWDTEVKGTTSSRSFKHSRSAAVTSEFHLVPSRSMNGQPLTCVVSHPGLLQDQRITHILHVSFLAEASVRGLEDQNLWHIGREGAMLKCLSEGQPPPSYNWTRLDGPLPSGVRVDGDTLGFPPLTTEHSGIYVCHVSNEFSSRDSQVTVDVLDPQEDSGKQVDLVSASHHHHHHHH
# Experiment Description: ELISA, coated hNectin-4-His
Measured Quantity: EC50
Write the quantity with the unit trailing the number.

Binder: antibody 1G8-2C6 (antibody, human IgG1, kappa, V domains shown) VH: EVQLVESGGGLVQPGGSLRLSCAASGDNFSSYAMSWVRQAPGKGLEWVSRIYGSDSTPDYADSVKGRFTISRDNSKNTLYLQMNSLRAEDTAVYYCARQTEDRSYGYDLDYWGQGTLVTVSS VL: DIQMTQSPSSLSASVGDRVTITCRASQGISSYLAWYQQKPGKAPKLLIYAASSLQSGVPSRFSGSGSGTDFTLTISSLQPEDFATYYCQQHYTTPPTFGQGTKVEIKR
EC50: 5 ng/mL

Look at each binder and report its EC50.
1. antibody 1F3-2E8 (antibody, human IgG1, kappa, V domains shown) VH: EVQLVESGGGLVQPGGSLRLSCAASGYSFSDYGMSWVRQAPGKGLEWVSWISPSKGSASYADSVKGRFTISRDNSKNTLYLQMNSLRAEDTAVYYCARAELLAFDVYTASDYWGQGTLVTVSS VL: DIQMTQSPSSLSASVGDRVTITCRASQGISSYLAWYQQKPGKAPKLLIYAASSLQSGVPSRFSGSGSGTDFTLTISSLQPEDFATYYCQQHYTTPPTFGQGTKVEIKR
2. antibody 1F3-1C4 (antibody, human IgG1, kappa, V domains shown) VH: EVQLVESGGGLVQPGGSLRLSCAASGFTFGDYGMSWVRQAPGKGLEWVSGIKPWGSGTYYADSVKGRFTISRDNSKNTLYLQMNSLRAEDTAVYYCARAELLAFDVYTASDYWGQGTLVTVSS VL: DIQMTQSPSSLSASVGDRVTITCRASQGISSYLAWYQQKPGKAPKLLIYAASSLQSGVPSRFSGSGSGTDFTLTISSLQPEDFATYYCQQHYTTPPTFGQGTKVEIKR

## Result
1: 9 ng/mL; 2: 11 ng/mL
